Data origin: patent US9745339B2

# System: Bevacizumab
# TEST_DETAILS: Microtiter plate chromatography of resins: binding and elution of Bevacizumab
# CONDITION_SUMMARY: fraction of bound Bevacizumab divided by fraction of bound HCP; truncated for values beyond 10
The label is 1 (yes) for Selectivity below 3 and 0 (no) for Selectivity equal to or exceeding 3.

NCCCn1cnc2cc(C(=O)Nc3nnc(-c4ccccc4)s3)ccc21 1 (yes)
NCCCOc1ccc(C(=O)Nc2nc(-c3ccccn3)cs2)cc1 1 (yes)
Cn1nc(NC(=O)c2ccc3c(c2)nnn3CCCN)c2ccccc21 0 (no)
Cc1csc(NC(=O)c2ccc3c(c2)ncn3CCCN)n1 1 (yes)
NCCCn1cnc2cc(C(=O)Nc3nc4ccccc4o3)ccc21 1 (yes)
NCCCn1cnc2cc(C(=O)Nc3nc4c(s3)CCC4)ccc21 1 (yes)
NCCOCCOc1ccc(C(=O)Nc2nnc(-c3ccco3)s2)cc1 0 (no)
NCCCn1c(=O)c(=O)[nH]c2cc(C(=O)Nc3nnc(-c4ccco4)s3)ccc21 0 (no)
COc1nc2cc(C(=O)Nc3nnc(-c4ccco4)s3)ccc2n1CCCN 0 (no)

* * *

# SYSTEM_TESTED: Bevacizumab (Homo sapiens, UniProt P01857)
# Construct: 0.5 mg/ml IgG in PBS pH 7.3; ligand immobilized on SEPHAR; Bevacizumab Yield; other: mass eluted (glycine pH 2.5) / mass injected; kd (dissociation constant, Langmuir isotherm); other: Bevacizumab 0.05-5 mg/ml in PBS pH 7.3, 25° C., at least 3 h; qm (maximum capacity); other: mg Bevacizumab per ml of resin; Langmuir isotherm; t0; fused on or other part: Humanized anti-VEGF-A VH domain joined N-terminally to the IGHG1 constant region (engineered, no UniProt entry)
# TEST_DETAILS: Microtiter plate chromatography of resins: binding and elution of Bevacizumab
# CONDITION_SUMMARY: mass eluted (glycine pH 2.5) / mass injected
MEASURE: Bevacizumab Yield (%)

NCCCn1cnc2cc(C(=O)Nc3nc(-c4cccnc4)cs3)ccc21 103
NCCCNc1ccc(C(=O)Nc2nnc(-c3ccco3)s2)cc1[N+](=O)[O-] 102
Cc1nc2cc(C(=O)Nc3nnc(-c4ccco4)s3)ccc2n1CCOCCOCCNC(=O)CC[C@H](N)C(=O)NCCOCCOCCn1c(C)nc2cc(C(=O)Nc3nnc(-c4ccco4)s3)ccc21 95
NCCCn1cnc2cc(C(=O)Nc3nnc(-c4ccco4)s3)ccc21 101
NCCCn1cnc2cc(C(=O)Nc3nnc(-c4ccncc4)s3)ccc21 100

* * *

# Tested on: Tocilizumab
# TEST_DETAILS: Microtiter plate chromatography of resins: binding and elution of Tocilizumab
# CONDITION_SUMMARY: fraction of injected protein bound; 0.5 mg/ml IgG in PBS pH 7.3
MEASURE: Tocilizumab Bound (%)

COMPOUND	UOM	QUANTITATIVE_READOUT
Cc1nc2cc(C(=O)Nc3nc(-c4ccncc4)cs3)ccc2n1CCCN [Ligand L51]	%	98
NCCCn1cnc2cc(C(=O)Nc3nc(-c4ccccc4)ns3)ccc21 [Ligand L22]	%	100
NCCCn1c(=O)[nH]c2cc(C(=O)Nc3nnc(-c4ccco4)s3)ccc21 [Ligand L24]	%	100
CCc1nnc(NC(=O)c2ccc3c(c2)ncn3CCCN)s1 [Ligand L07]	%	100
NCCCn1cnc2cc(C(=O)Nc3nc(-c4ccncc4)cs3)ccc21 [Ligand L47]	%	99
NCCCn1cnc2cc(C(=O)Nc3nncs3)ccc21 [Ligand L13]	%	100
Cc1cc(NC(=O)c2ccc3c(c2)ncn3CCCN)nn1-c1ccccc1 [Ligand L11]	%	96
NCCCOc1ccc(C(=O)Nc2nc(-c3ccccn3)cs2)cc1 [Ligand L38]	%	99
NCCCn1cnc2cc(C(=O)Nc3nc4c(s3)CCC4)ccc21 [Ligand L32]	%	100
CCc1nc2cc(C(=O)Nc3nnc(-c4ccco4)s3)ccc2n1CCCN [Ligand L44]	%	100
